# assayed.system: human β-N-acetylhexosaminidase B (HsHexB) (Homo sapiens)
# Construct: made in house; host or cells: Pichia pastoris
# assay.remarks: Enzyme inhibitory activity test against HsHexB (4-MU-GlcNAc substrate, end-point fluorescence; Dixon plots for Ki)
# Type: biochemical
# experimental.conditions: Dixon plots; 4-MU-GlcNAc 40, 20, 10 μM; pH 4.5
measured.property: Ki

compound="O=C(CS[C@@H]1O[C@H](CO)[C@@H](O)[C@H](O)[C@H]1NC(=O)c1ccccc1)NCCCN1C(=O)c2cccc3c(Br)ccc(c23)C1=O [Compound 16j]" measured_property=Ki result="> 100 µM"
compound="CC(C)C(=O)N[C@@H]1[C@@H](O)[C@H](O)[C@@H](CO)O[C@H]1SCC(=O)NCCCN1C(=O)c2cccc3c(Br)ccc(c23)C1=O [Compound 16n]" measured_property=Ki result="> 100 µM"

Alright, here's another compound for you.
Item: O=C(CS[C@@H]1O[C@H](CO)[C@@H](O)[C@H](O)[C@H]1NC(=O)c1ccc(F)cc1)NCCCN1C(=O)c2cccc3c(Br)ccc(c23)C1=O [Compound 16k] | Ki: > 100 µM

====

# assayed.system: human O-GlcNAcase (hOGA) (Homo sapiens, UniProt O60502)
# Construct: made in house; host or cells: Escherichia coli BL21(DE3)
# Sequence (O60502 whole entry): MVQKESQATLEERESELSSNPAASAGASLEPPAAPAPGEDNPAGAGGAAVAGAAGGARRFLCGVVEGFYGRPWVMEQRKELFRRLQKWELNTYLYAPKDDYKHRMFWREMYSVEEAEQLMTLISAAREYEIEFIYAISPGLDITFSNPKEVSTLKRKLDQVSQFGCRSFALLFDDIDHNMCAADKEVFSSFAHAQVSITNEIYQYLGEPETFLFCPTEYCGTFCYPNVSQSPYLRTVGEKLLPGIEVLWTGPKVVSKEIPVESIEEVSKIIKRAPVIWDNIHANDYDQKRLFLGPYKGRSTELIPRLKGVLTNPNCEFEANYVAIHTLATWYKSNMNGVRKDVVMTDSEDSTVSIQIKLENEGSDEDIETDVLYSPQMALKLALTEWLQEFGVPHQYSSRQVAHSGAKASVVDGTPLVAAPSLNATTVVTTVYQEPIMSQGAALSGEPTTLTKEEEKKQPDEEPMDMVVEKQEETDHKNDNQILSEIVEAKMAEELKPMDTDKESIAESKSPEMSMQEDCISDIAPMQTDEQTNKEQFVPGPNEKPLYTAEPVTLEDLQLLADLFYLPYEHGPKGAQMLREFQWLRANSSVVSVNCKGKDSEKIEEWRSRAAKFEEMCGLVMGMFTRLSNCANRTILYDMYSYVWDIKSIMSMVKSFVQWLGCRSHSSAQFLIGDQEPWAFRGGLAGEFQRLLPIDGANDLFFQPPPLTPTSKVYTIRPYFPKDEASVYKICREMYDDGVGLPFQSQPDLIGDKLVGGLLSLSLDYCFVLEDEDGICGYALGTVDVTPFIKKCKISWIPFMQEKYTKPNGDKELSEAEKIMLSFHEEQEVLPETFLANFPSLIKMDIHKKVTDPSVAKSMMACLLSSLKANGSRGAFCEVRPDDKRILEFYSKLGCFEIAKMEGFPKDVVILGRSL
# assay.remarks: Enzyme inhibitory activity test against hOGA (4-MU-GlcNAc substrate, end-point fluorescence; Dixon plots for Ki)
# Assay type: biochemical
# experimental.conditions: Dixon plots; 4-MU-GlcNAc 40, 20, 10 μM; pH 6.5
measured.property: Ki (µM)

compound="O=C(CS[C@@H]1O[C@H](CO)[C@@H](O)[C@H](O)[C@H]1NC(=O)C(F)(F)F)NCCCN1C(=O)c2cccc3c(Br)ccc(c23)C1=O [Compound 16o]" measured_property=Ki number=4.62
compound="CC(=O)N[C@@H]1[C@@H](O)[C@H](O)[C@@H](CO)O[C@H]1SCC(=O)NCCCN1C(=O)c2cccc3c(N4CCCCC4)ccc(c23)C1=O [Compound 10d]" measured_property=Ki number=1.42
compound="COc1ccc2c3c(cccc13)C(=O)N(CCCNC(=O)CS[C@@H]1O[C@H](CO)[C@@H](O)[C@H](O)[C@H]1NC(C)=O)C2=O [Compound 10b]" measured_property=Ki number=4.43

(A) CC(C)C(=O)N[C@@H]1[C@@H](O)[C@H](O)[C@@H](CO)O[C@H]1SCC(=O)NCCCN1C(=O)c2cccc3c(Br)ccc(c23)C1=O [Compound 16n]
(B) CCCC(=O)N[C@@H]1[C@@H](O)[C@H](O)[C@@H](CO)O[C@H]1SCC(=O)NCCCN1C(=O)c2cccc3c(N4CCCCC4)ccc(c23)C1=O [Compound 16e]
(C) CCC(=O)N[C@@H]1[C@@H](O)[C@H](O)[C@@H](CO)O[C@H]1SCC(=O)NCCCN1C(=O)c2cccc3c(N4CCCCC4)ccc(c23)C1=O [Compound 16d]
(D) CC(=O)N[C@@H]1[C@@H](O)[C@H](O)[C@@H](CO)O[C@H]1SCC(=O)NCCCN1C(=O)c2cccc3c(Br)ccc(c23)C1=O [Compound 10a]
(E) CC(=O)N[C@@H]1[C@@H](O)[C@H](O)[C@@H](CO)O[C@H]1SCC(=O)NCCCN1C(=O)c2cccc3cccc(c23)C1=O [Compound 2, reference compound]
[Q] // smallest Ki at index 0, largest at the end Note for the reader: the ranking is given by listing the labels in the order requested.
[A] D, C, E, A, B
(D: 0.61 µM, C: 1.69 µM, E: 3.46 µM, A: 6.92 µM, B: 12.8 µM)

(a) CNC(=O)N[C@@H]1[C@@H](O)[C@H](O)[C@@H](CO)O[C@H]1SCC(=O)NCCCN1C(=O)c2cccc3c(N4CCCCC4)ccc(c23)C1=O [Compound 16h]
(b) CCCC(=O)N[C@@H]1[C@@H](O)[C@H](O)[C@@H](CO)O[C@H]1SCC(=O)NCCCN1C(=O)c2cccc3c(Br)ccc(c23)C1=O [Compound 16m]
[Q] Quick one: lower Ki, a or b ? Answer by stating the label of the chosen item.
[A] b
(b: 4.36 µM, a: 6.6 µM)

(1) CCCNC(=O)N[C@@H]1[C@@H](O)[C@H](O)[C@@H](CO)O[C@H]1SCC(=O)NCCCN1C(=O)c2cccc3c(N4CCCCC4)ccc(c23)C1=O [Compound 17b]
(2) O=C(CS[C@@H]1O[C@H](CO)[C@@H](O)[C@H](O)[C@H]1NC(=O)C(F)(F)F)NCCCN1C(=O)c2cccc3c(N4CCCCC4)ccc(c23)C1=O [Compound 16g]
(3) CNC(=O)N[C@@H]1[C@@H](O)[C@H](O)[C@@H](CO)O[C@H]1SCC(=O)NCCCN1C(=O)c2cccc3c(Br)ccc(c23)C1=O [Compound 17c]
[Q] Write the entries in order, lowest recorded Ki first. List the labels according to the requested ordering.
[A] 3, 2, 1

====

# assayed.system: human β-N-acetylhexosaminidase B (HsHexB) (Homo sapiens)
# Construct: made in house; host or cells: Pichia pastoris
# Sequence (P07686 122-556): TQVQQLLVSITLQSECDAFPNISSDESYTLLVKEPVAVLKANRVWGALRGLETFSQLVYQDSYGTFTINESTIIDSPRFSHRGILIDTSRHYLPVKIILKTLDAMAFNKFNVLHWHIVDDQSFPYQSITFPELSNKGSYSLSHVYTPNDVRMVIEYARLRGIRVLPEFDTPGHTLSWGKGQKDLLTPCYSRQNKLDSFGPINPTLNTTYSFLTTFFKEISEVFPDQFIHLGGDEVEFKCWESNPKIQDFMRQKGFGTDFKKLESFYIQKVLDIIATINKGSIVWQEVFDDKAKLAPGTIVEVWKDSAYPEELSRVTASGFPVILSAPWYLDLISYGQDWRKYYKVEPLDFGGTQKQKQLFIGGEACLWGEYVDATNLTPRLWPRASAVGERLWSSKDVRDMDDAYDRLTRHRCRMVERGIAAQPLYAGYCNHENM
# assay.remarks: Enzyme inhibitory activity test against HsHexB (4-MU-GlcNAc substrate, end-point fluorescence; Dixon plots for Ki)
# Format: biochemical
# experimental.conditions: 100 μM inhibitor; 40 μM 4-MU-GlcNAc; pH 4.5; 30°C, 30 min; read-out: Inhibition rate at 100 μM (%) HsHexB
measured.property: inhibition at 100 µM (%)

compound="O=C(CS[C@@H]1O[C@H](CO)[C@@H](O)[C@H](O)[C@H]1NC(=O)C(F)(F)F)NCCCN1C(=O)c2cccc3c(Br)ccc(c23)C1=O [Compound 16o]" assayed_system="human β-N-acetylhexosaminidase B (HsHexB) (Homo sapiens)" unit_descriptor=% number=37.7
compound="O=C(CS[C@@H]1O[C@H](CO)[C@@H](O)[C@H](O)[C@H]1NC(=O)c1ccc(F)cc1)NCCCN1C(=O)c2cccc3c(Br)ccc(c23)C1=O [Compound 16k]" assayed_system="human β-N-acetylhexosaminidase B (HsHexB) (Homo sapiens)" unit_descriptor=% number=48.5
compound="COc1ccc2c3c(cccc13)C(=O)N(CCCNC(=O)CS[C@@H]1O[C@H](CO)[C@@H](O)[C@H](O)[C@H]1NC(C)=O)C2=O [Compound 10b]" assayed_system="human β-N-acetylhexosaminidase B (HsHexB) (Homo sapiens)" unit_descriptor=% number=49.2

====

# assayed.system: human β-N-acetylhexosaminidase B (HsHexB) (Homo sapiens, UniProt P07686)
# Construct: made in house; host or cells: Pichia pastoris
# Sequence (P07686 122-556): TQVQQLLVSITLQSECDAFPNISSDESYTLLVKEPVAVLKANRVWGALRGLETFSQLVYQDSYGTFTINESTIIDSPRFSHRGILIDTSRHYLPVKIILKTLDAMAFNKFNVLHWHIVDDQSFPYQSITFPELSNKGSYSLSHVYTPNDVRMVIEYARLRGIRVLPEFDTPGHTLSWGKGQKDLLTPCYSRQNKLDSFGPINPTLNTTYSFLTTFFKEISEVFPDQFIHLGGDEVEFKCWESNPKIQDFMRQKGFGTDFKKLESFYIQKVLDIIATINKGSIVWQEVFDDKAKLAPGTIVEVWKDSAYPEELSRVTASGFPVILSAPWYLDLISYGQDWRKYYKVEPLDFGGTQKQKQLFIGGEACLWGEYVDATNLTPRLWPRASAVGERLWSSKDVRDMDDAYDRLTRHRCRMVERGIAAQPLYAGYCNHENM
# assay.remarks: Enzyme inhibitory activity test against HsHexB (4-MU-GlcNAc substrate, end-point fluorescence; Dixon plots for Ki)
# Assay type: biochemical
# experimental.conditions: Dixon plots; 4-MU-GlcNAc 40, 20, 10 μM; pH 4.5
Listed below: Ki values for each entry.

In the examples that follow, each entry is paired with its recorded Ki.
compound="CC(=O)N[C@@H]1[C@@H](O)[C@H](O)[C@@H](CO)O[C@H]1SCC(=O)NCCCN1C(=O)c2cccc3c(N(C)C)ccc(c23)C1=O [Compound 10c]" measured_property=Ki result="> 100 µM"
compound="O=C(CS[C@@H]1O[C@H](CO)[C@@H](O)[C@H](O)[C@H]1NC(=O)c1ccccc1)NCCCN1C(=O)c2cccc3c(N4CCCCC4)ccc(c23)C1=O [Compound 16a]" measured_property=Ki result="> 100 µM"

Turning now to a further compound:
For record COc1ccc2c3c(cccc13)C(=O)N(CCCNC(=O)CS[C@@H]1O[C@H](CO)[C@@H](O)[C@H](O)[C@H]1NC(C)=O)C2=O [Compound 10b] the listed Ki is > 100 µM
